metric-name: melting point

Example compounds with recorded melting point:
C#CCCOc1cc(/C=C/C(=O)Nc2ccccc2C(=O)O)ccc1OC: 197 to 198 °C
CCCCC#CCCOc1cc(/C=C/C(=O)Nc2ccccc2C(=O)O)ccc1OC: 157 to 158 °C
COc1ccc(/C=C/C(=O)Nc2ccccc2C(=O)O)cc1OCc1c(C)noc1C: 227 to 229 °C

Reported melting point for `COc1cc(/C=C/C(=O)Nc2ccccc2C(=O)O)ccc1OC1CCCCC1` was 90 to 92 °C

Reported melting point for `COc1cc(/C=C/C(=O)Nc2ccccc2C(=O)O)ccc1OCCN1CCOCC1` was 195 to 201 °C

---

Parameter: melting point. Scope: all listed entries.

Example compounds with recorded melting point:
C#CCCCCOc1cc(/C=C/C(=O)Nc2ccccc2C(=O)O)ccc1OC [Analogue 34]: 135 to 137 °C
COc1cc(/C=C/C(=O)Nc2ccccc2C(=O)O)ccc1OCC(=O)C12CC3CC(CC(C3)C1)C2 [Analogue 47]: 112 to 114 °C
COc1cc(/C=C/C(=O)Nc2ccccc2C(=O)O)ccc1OCC1CCCCC1 [Analogue 28]: 207 to 210 °C
O=C(/C=C/c1ccc(O)c(O)c1)Nc1ccccc1C(=O)O [Analogue 5]: 204 to 206 °C
O=C(/C=C/c1ccccc1)Nc1ccccc1C(=O)O [Analogue 2]: 188 to 189 °C

Reported melting point for COc1ccc(/C=C/C(=O)Nc2ccccc2C(=O)O)cn1 [Analogue 46] was 209 to 211 °C

Reported melting point for COc1cccc(/C=C/C(=O)Nc2ccccc2C(=O)O)c1 [Analogue 4] was 183 to 184 °C

Reported melting point for CCC#CCOc1ccc(/C=C/C(=O)Nc2ccccc2C(=O)O)cc1OC [Analogue 18] was 185.5 to 186.5 °C

---

# System: rat mesangial cell line
# test-details: TGF-β stimulated 3H-proline incorporation in mesangial cells (Example 5)
# Type: cell-based
# test-conditions: Rattus norvegicus, Mesangial cell; @ 100 μM; 5 ng/mL TGF-β1, 44 h; read-out: Mesangial Cell Assay TGF-β % reduction of TGF-β stimulation_proline inc.
metric-name: inhibition at 100 µM

Example molecules with recorded inhibition at 100 µM:
COc1ccc(/C=C/C(=O)Nc2ccccc2C(=O)O)cc1OC [Analogue 1]: 50 to 70%
COc1ccc(/C=C/C(=O)Nc2ccc(C(=O)O)cc2)cc1OC [Analogue 14]: ~30%
COc1ccc(/C=C/C(=O)Nc2ccccc2)cc1OC [Analogue 13]: ~55%

Next, consider the following molecule.
Recorded inhibition at 100 µM for CC#CCOc1cc(/C=C/C(=O)Nc2ccccc2C(=O)O)ccc1OC [Analogue 23] on rat mesangial cell line was ~80%
